TEST_TARGET: Tubulin (Sus scrofa, UniProt P02554+P02550)
ASSAY_NOTES: Inhibition of porcine tubulin assembly
Type: protein assay
IC50 values by entry

- INPUT_SMILES: "CCCCN(CCCC)c1c(C#N)cc(S(=O)(=O)Nc2ccccc2)cc1C#N"
  IC50: "> 50 µM"
- INPUT_SMILES: "CCCCN(CCCC)c1c(N)cc(S(=O)(=O)Nc2ccccc2)cc1N"
  IC50: "> 50 µM"
- INPUT_SMILES: "CCCCN(CCCC)c1c(Cl)cc(S(=O)(=O)Nc2ccccc2)cc1Cl"
  IC50: "> 50 µM"
- INPUT_SMILES: "CCCCN(CCCC)c1c([N+](=O)[O-])cc(S(=O)(=O)Nc2ccccc2)cc1[N+](=O)[O-]"
  IC50: "> 40 µM"
- INPUT_SMILES: "CCCCN(CCCC)c1c(C(C)=O)cc(S(=O)(=O)Nc2ccccc2)cc1C(C)=O"
  IC50: "> 100 µM"

These measurements were taken from ChEMBL document CHEMBL1149661.
